Tested on: MDA-MB-468 breast
assay-protocol: NCI tumour cell line growth inhibition, 48 h; in the data active means GI50 below about 0.43 µM; inactive means the rest
Returns: one label drawn from active, inactive

Please review the entries below; each comes with its answer.
# compound, group
records = [
    ("CC(=O)C1=C(O)C=C2Oc3c(C(=O)/C=C/c4c(Cl)cccc4Cl)c(O)c(C)c(O)c3[C@]2(C)C1=O", "inactive"),
    ("COc1cccc(NC(=O)c2sc3nc(C)c(C(O)c4ccccc4)cc3c2N)c1 (configuration not stated)", "active"),
    ("O=C(NCCCO)c1cc(Cl)ccc1O", "inactive"),
    ("COc1cc(NCCCN=C(N)NC(N)=NC(C)C)c2ncccc2c1", "active"),
    ("O=C(CSc1nc2ccccc2c(=O)n1-c1ccc(Cl)cc1)Nc1ccc(-c2nc3ccccc3[nH]2)cc1", "inactive"),
]

## Input Short answer needed: outcome of this test for O=Nc1ccc(NO)c2ccccc12 ?
## Output inactive

## Input # iterate: O=C(Nc1ccc(-n2ccc3c(NC(=O)c4ccccc4)ncnc32)cc1)Nc1ccc(Cl)c(Cl)c1
## Output inactive

## Input Follow-up item: O=C(c1ccccc1)C1OC1c1ccc([N+](=O)[O-])cc1 (configuration not stated)
## Output inactive

## Input Now give it for CC(C)=CCC[C@](C)(O)[C@H]1CC[C@]2(C)[C@@H]1CC[C@@H]1[C@@]3(C)CC/C(=N/O)C(C)(C)[C@@H]3CC[C@]12C too.
## Output inactive

## Input O=C(Nc1ccncc1)C(=O)c1cn(S(=O)(=O)c2ccc(Cl)cc2)c2ccccc12 ?
## Output inactive

## Input Please do the same for O=C1C=CC(=Nc2cc(Br)c(O)c(Br)c2)C=C1 as well.
## Output inactive

## Input Same thing, different compound: O=C(CCC(=O)N1CCOCC1)OCCCCCCSc1ccc([N+](=O)[O-])c2nonc12
## Output inactive

----------
Test system: ACHN renal
assay-protocol: NCI tumour cell line growth inhibition, 48 h
As shown below, each of these molecules has a reported TGI value.
Express the result in µM but write the number alone.

# chem-smiles, unit, obs-value
measured = [
    ("COc1ccc(C(=O)/C=C/c2cc(F)cc(C(F)(F)F)c2)cc1S(N)(=O)=O", "µM", 3.28),
    ("O=C(c1ccc(Cl)cc1)c1ccc(OCCCN2CCN(c3ccncc3)CC2)cc1", "µM", 21.1),
    ("O=C(CSc1nc2ccccc2c(=O)n1-c1ccc(Cl)cc1)Nc1ccc(-c2nc3ccccc3[nH]2)cc1", "µM", 10.7),
]

Here is another molecule to look at.
## Input Lab note: need TGI with ACHN renal for entry O=C(/C=C/c1ccccc1)c1nc2ccccc2n1Cc1ccc(F)cc1 , please look it up.
## Output 12.6

----------
System: MDA-MB-468 breast
assay-protocol: NCI tumour cell line growth inhibition, 48 h
Please note: Fulfilled applies when TGI is 3 µM or greater, and Not fulfilled applies otherwise.

Solved entries (count: 2):
# compound, target-or-system, group
rows = [
    ("O=Nc1ccc(NO)c2ccccc12", "MDA-MB-468 breast", "Fulfilled"),
    ("COc1cc(NCCCN=C(N)NC(N)=NC(C)C)c2ncccc2c1", "MDA-MB-468 breast", "Not fulfilled"),
]

## Input Test whether the compound CCN(CC)CC(O)CNc1c2ccc([N+](=O)[O-])cc2nc2cc(OC)c(OC)cc12 (stereo not given) records TGI of 3 µM or higher.
## Output Not fulfilled

## Input Param item: O=C(Nc1ccncc1)C(=O)c1cn(S(=O)(=O)c2ccc(Cl)cc2)c2ccccc12
## Output Fulfilled

## Input // query: O=C(O)C1(C(=O)O)CCC1.[NH2-].[NH2-].[Pt+2]
## Output Fulfilled

## Input What about Cc1cc(N2CCOCC2)nc(N[C@@H]2CCC[C@H](Nc3ccnc4cc(Cl)ccc34)C2)n1 ?
## Output Fulfilled

----------
Test system: MDA-MB-468 breast
assay-protocol: NCI tumour cell line growth inhibition, 48 h
Parameter: GI50. Scope: all listed entries.

# annotated cases, reported GI50 shown
# molecule, obs-value
measured = [
    ("NCCOCCOCCNc1nc(-c2ccccc2)nc(N2CCN(c3ccccn3)CC2)n1", "7230 nM"),
    ("COc1ccc2c(=O)cc(C(Cl)(Cl)Cl)oc2c1", "383 nM"),
    ("Oc1ccc(-c2nc3ccccc3s2)cc1CN(Cc1ccccn1)Cc1ccccn1", "2480 nM"),
    ("O=C(c1ccccc1)C(CN1CCCCC1)c1ccccc1 (stereo not given)", "536 nM"),
]

We now examine a further molecule.
## Input Given O=C(c1ccc(Cl)cc1)c1ccc(OCCCN2CCN(c3ccncc3)CC2)cc1 , state its recorded GI50.
## Output 1390 nM

----------
Quick reference: TGI of the listed items.
System: MDA-MB-468 breast
assay-protocol: NCI tumour cell line growth inhibition, 48 h
The reply should contain only the number, in µM.

## Input What value of TGI has been recorded for this entry: Oc1ccc(-c2nc3ccccc3s2)cc1CN(Cc1ccccn1)Cc1ccccn1
## Output 17

----------
System: MDA-MB-468 breast
assay-protocol: NCI tumour cell line growth inhibition, 48 h
*1 amine or outer side, *2 acyl side, *3 side chain or, on linkers, in order; H or OH if unused. Where a SMILES comes first, the peptide text is derived from it. [ ]: non-standard residue; d: D form. The star is where a group is joined. X11 = C/C=C/CC(C)C(O)[C@H](N[*:1])C(=O)[*:2]; Leu(ol) = CC(C)C[C@H](N)CO; Iva = CC[C@](C)(N)C(=O)O; Octanoyl = CCCCCCCC(=O)*; Aib = CC(C)(N)C(=O)O
Assign condition met to entries whose TGI meets or exceeds 10 µM; assign condition not met to the rest.

Example entries and their recorded answers appear below.
# compound, target-or-system, group
rows = [
    ("Nc1c(C(=O)Nc2cccc(F)c2)sc2nc3c(cc12)C(=O)CCC3", "MDA-MB-468 breast", "condition met"),
    ("COc1cccc(NC(=O)c2sc3nc(C)c(C(O)c4ccccc4)cc3c2N)c1 (stereo not drawn)", "MDA-MB-468 breast", "condition met"),
    ("O=C1C=CC(=Nc2cc(Br)c(O)c(Br)c2)C=C1", "MDA-MB-468 breast", "condition met"),
    ("CS(=O)(=O)CCc1cccc(C(=O)c2cnn(-c3ccc(F)cc3)c2N)c1", "MDA-MB-468 breast", "condition met"),
    ("COc1ccc2c(=O)cc(C(Cl)(Cl)Cl)oc2c1", "MDA-MB-468 breast", "condition met"),
    ("C/C=C/CC(C)C(O)[C@H](NC(=O)[C@@H]1CCCN1C(=O)C(C)(C)NC(=O)CCCCCCC)C(=O)N[C@@](C)(CC)C(=O)N[C@@H](CCC(N)=O)C(=O)N[C@H](CCC(N)=O)C(=O)NC(C)(C)C(=O)NC(C)(C)C(=O)N[C@@H](CCC(N)=O)C(=O)N[C@H](CC(C)C)C(=O)N[C@H](CO)CC(C)C (stereo partly drawn) (Octanoyl-[Aib]P[X11][Iva]Q[dQ][Aib][Aib]Q[dL][Leu(ol)])", "MDA-MB-468 breast", "condition not met"),
    ("O=C(CSc1nc2ccccc2c(=O)n1-c1ccc(Cl)cc1)Nc1ccc(-c2nc3ccccc3[nH]2)cc1", "MDA-MB-468 breast", "condition not met"),
]

Now for a further compound.
## Input Decide: TGI of O=C(c1ccccc1)C(CN1CCCCC1)c1ccccc1 (stereo not drawn) >= 10 µM?
## Output condition not met
